tested.target: DPP-4 (manufactured by Sigma, derived from porcine kidney) (porcine, UniProt P22411 38-766, limits assumed)
Sequence (P22411 38-766 limits assumed): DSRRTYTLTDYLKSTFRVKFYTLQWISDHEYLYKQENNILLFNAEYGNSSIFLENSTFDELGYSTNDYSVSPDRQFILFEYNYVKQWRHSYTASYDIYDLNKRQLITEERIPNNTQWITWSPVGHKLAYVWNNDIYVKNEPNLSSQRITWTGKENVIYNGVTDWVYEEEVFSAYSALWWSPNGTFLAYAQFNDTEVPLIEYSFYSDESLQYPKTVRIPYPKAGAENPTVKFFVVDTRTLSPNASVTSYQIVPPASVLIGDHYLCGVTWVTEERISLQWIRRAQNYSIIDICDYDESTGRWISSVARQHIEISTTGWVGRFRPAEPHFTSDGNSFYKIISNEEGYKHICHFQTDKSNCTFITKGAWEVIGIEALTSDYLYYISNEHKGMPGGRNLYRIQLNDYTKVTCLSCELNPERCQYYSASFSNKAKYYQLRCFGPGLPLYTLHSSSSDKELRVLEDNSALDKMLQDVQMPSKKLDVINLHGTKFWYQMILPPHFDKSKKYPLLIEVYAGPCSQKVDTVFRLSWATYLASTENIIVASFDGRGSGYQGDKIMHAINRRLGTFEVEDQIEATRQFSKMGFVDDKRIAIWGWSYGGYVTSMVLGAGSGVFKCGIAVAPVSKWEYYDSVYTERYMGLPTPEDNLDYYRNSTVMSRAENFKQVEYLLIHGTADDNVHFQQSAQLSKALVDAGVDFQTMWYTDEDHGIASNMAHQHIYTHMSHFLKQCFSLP
method.notes: cell-based or functional assay
Square brackets hold non-standard residues; d marks the D form. Ends that are not written are not given here. Hyp = O=C(O)[C@@H]1C[C@@H](O)CN1
Reported Inhibition rate (%) at 0.35 mg/ml time values follow for various binders
Provide only the numeric value, understood in %.

As a guide, the following entries are already answered.
> print(dat)
                            binder  reading
1  L[Hyp]GPA [Leu-Hyp-Gly-Pro-Ala]     52.1
2              [Hyp]-Gly [Hyp-Gly]        0
3      Pro-[Hyp]-Gly [Pro-Hyp-Gly]     27.2
4              Pro-[Hyp] [Pro-Hyp]        0
5              Phe-[Hyp] [Phe-Hyp]        0

Reported Inhibition rate (%) at 0.35 mg/ml time for LP [Leu-Pro] : what is it?
92.1

Item LPGPA [Leu-Pro-Gly-Pro-Ala] has what recorded Inhibition rate (%) at 0.35 mg/ml time?
94.9

Fill in: Inhibition rate (%) at 0.35 mg/ml time of Ile-[Hyp]-Gly [Ile-Hyp-Gly] is ___
71

Fill in: Inhibition rate (%) at 0.35 mg/ml time of Leu-[Hyp] [Leu-Hyp] is ___
48.6
